Target entity: Coagulation factor X (Homo sapiens)
Run description: Inhibitory activity against factor Xa
IC50 less than 0.05 µM is rule met; IC50 greater than or equal to 0.05 µM is rule not met.

Consider the following illustrative entries.
- Cpd smiles: "CC(=C(F)C(=O)Nc1ccc(-c2ccccc2S(N)(=O)=O)cc1Br)c1ccc(F)c(C(=N)N)c1"
  Label class: "rule met"
- Cpd smiles: "N=C(N)c1cccc(C(CO)=C(F)C(=O)Nc2ccc(-c3ccccc3S(N)(=O)=O)cc2)c1"
  Label class: "rule met"

query: Problem: For the compound `N=C(N)c1cccc(C=C(C(=O)Nc2ccc(-c3ccccc3S(N)(=O)=O)cc2)c2ccncc2)c1` , is IC50 under 0.05 µM?
result: rule not met

query: Problem: For the compound `N=C(N)c1cccc(/C(=C\C(=O)Nc2ccc(-c3ccccc3S(N)(=O)=O)cc2)c2ccco2)c1` , is IC50 under 0.05 µM?
result: rule not met

###

Target entity: Coagulation factor X (Homo sapiens, UniProt P00742)
Sequence (P00742 41-179 limits assumed): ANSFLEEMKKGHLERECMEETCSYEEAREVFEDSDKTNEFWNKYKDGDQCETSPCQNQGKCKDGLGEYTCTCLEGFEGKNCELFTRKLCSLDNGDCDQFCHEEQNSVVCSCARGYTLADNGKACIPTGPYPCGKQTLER
Sequence (P00742 235-488 limits assumed): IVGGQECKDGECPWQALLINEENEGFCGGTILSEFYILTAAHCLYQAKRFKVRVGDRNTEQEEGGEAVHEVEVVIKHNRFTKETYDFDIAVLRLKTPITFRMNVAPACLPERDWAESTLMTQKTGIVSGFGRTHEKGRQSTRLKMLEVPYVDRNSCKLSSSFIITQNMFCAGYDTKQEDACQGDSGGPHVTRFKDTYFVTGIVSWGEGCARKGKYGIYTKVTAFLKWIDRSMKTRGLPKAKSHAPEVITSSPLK
Run description: Inhibitory activity against factor Xa was determined
Readout kind: IC50 (nM)
Answers are plain numbers, in nM.

query: Quick check: IC50 of `COC(=O)C(=Cc1cccc(C(=N)N)c1)C(=O)Nc1ccc(-c2ccccc2S(N)(=O)=O)cc1` ?
result: 759

###

Target entity: Coagulation factor X (Homo sapiens, UniProt P00742)
Run description: Inhibitory activity against factor Xa
Readout kind: log10 IC50 (log10 of the value in nM)
// units: nM (pre-log); metric: IC50; scale: log10

- Cpd smiles: "CC(=C(CC(N)=O)C(=O)Nc1ccc(-c2ccccc2S(N)(=O)=O)cc1)c1cccc(C(=N)N)c1"
  Measured: 2.00
- Cpd smiles: "CC(=C(F)C(=O)Nc1ccc(-c2ccccc2S(N)(=O)=O)cc1Br)c1cccc(C(=N)N)c1"
  Measured: -0.30
- Cpd smiles: "CS(=O)(=O)CC(=C(F)C(=O)Nc1ccc(-c2ccccc2S(N)(=O)=O)cc1)c1cccc(C(=N)N)c1"
  Measured: 1.00
- Cpd smiles: "C/C(=C(\\F)C(=O)Nc1ccc(-c2ccccc2S(N)(=O)=O)cc1F)c1cc(C(=N)N)ccc1N"
  Measured: 0.41
- Cpd smiles: "CN(C)CC(=C(F)C(=O)Nc1ccc(-c2ccccc2S(N)(=O)=O)cc1F)c1cccc(C(=N)N)c1"
  Measured: 2.28
- Cpd smiles: "CC(=C(CC(=O)O)C(=O)Nc1ccc(-c2ccccc2S(N)(=O)=O)cc1)c1cccc(C(=N)N)c1"
  Measured: 2.37
- Cpd smiles: "COCC(=CC(=O)Nc1ccc(-c2ccccc2S(N)(=O)=O)cc1)c1cccc(C(=N)N)c1"
  Measured: 0.85

Now turn to the next compound.
query: Quick check: log10 IC50 of `CCC(=CC(=O)Nc1ccc(-c2ccccc2S(N)(=O)=O)cc1)c1cccc(C(=N)N)c1` ?
result: 0.85

###

Target entity: Coagulation factor X (Homo sapiens, UniProt P00742)
Run description: Inhibitory activity against factor Xa
pIC50: −log10 of the molar value.
Assign 1 to entries whose pIC50 meets or exceeds 8; assign 0 to the rest.

- Cpd smiles: "CC(=Cc1cccc(C(=N)N)c1)C(=O)Nc1ccc(-c2ccccc2S(N)(=O)=O)cc1"
  Label class: 0

query: Please tell me: is the molecule `CC(=C(F)C(=O)Nc1ccc(-c2ccccc2S(N)(=O)=O)cc1Cl)c1cccc(C(=N)N)c1` at or over 8 in terms of pIC50?
result: 1

query: Please tell me: is the molecule `N=C(N)c1ccc(F)c(C=CC(=O)Nc2ccc(-c3ccccc3S(N)(=O)=O)cc2)c1` at or over 8 in terms of pIC50?
result: 0

query: Please tell me: is the molecule `CC(=C(F)C(=O)Nc1ccc(-c2ccccc2S(N)(=O)=O)cc1)c1ccc(F)c(C(=N)N)c1` at or over 8 in terms of pIC50?
result: 1
